Assignment: determine reported ΔTm at 250 µM for the given compounds.
# TGT: p53 Y220H mutant DBD (Homo sapiens, UniProt P04637, M133L/N239Y/N268D/V203A/Y220H)
# Construct: the mutant p53 DBD (residues 94–312) of interest; 6xHis (N, cleaved yes); lipoyl domain of dihydrolipoamide acetyltransferase (Bacillus stearothermophilus) (N, cleaved yes); made in house; host or cells: E. coli C41
# EXPERIMENTAL_PROTOCOL: DSF thermal shift assay, Y220H mutant
# Assay type: binding
# MEASUREMENT_CONDITIONS: 250 μM compound, Agilent MX3005P, 270 K/h, triplicate, mean ± SEM (Table 4)
Give bare numbers, in °C.

- STRUCTURE_SMILES: "CNCc1ccc2c(c1)c1ccccc1n2CC(F)(F)F"
  ΔTm at 250 µM [°C]: 0.2

For every item below, please supply its ΔTm at 250 µM.
1. CCn1c2ccc(CN(C)C)cc2c2ccc(Br)cc21
2. CCn1c2ccc(CNC)cc2c2ccc(-c3ccoc3)cc21
3. CCn1c2ccc(CNC)cc2c2ccc(-c3cscn3)cc21

*A*
0.2
0.7
-0.3
